// values below are reported MFI
- ASSAY TARGET: T1, recombinant mouse Sortilin (mouse, UniProt Q6PHU5 74-825)
- T1 construct: also called mSort
- ASSAY TEXT: flow cytometry, 293 cells expressing recombinant mouse Sortilin, 10 ug/ml antibody

| BINDER | MFI [MFI] |
| --- | --- |
| anti-Sortilin antibody S-26 (antibody, V domains shown, IgG) VH: EVQLVESGGGLVKPGGSLRLSCAASGFTFSSYSMNWVRQAPGKGLEWVSSISSSSSYIYYADSVKGRFTISRDNAKNSLYLQMNSLRAEDTAVYYCARDRLGRGYKWNWFDPWGQGTLVTVSS VL: DIQMTQSPSSVSASVGDRVTITCRASQGIDSWLAWYQQKPGKAPKLLIYAASSLQSGVPSRFSGSGSGTDFTLTISSLQPEDFATYYCQQGNSLPPITFGGGTKVEIK | 20900 |
| anti-Sortilin antibody S-22 (antibody, V domains shown, IgG) VH: QVQLVQSGAEVKKPGSSVKVSCKASGGTFSSYAISWVRQAPGQGLEWMGGIIPIFGTASYAQKFQGRVTITADESTSTAYMELSSLRSEDTAVYYCARQGRKTGYYYYYGMDVWGQGTTVTVSS VL: DIQMTQSPSTLSASVGDRVTITCRASQSISSWLAWYQQKPGKAPKLLIYKASSLESGVPSRFSGSGSGTEFTLTISSLQPDDFATYYCQQADGHITFGGGTKVEIK | 23200 |
| anti-Sortilin antibody S-55 (antibody, V domains shown, IgG) VH: QVQLQESGPGLVKPSETLSLTCAVSGYSISSGYYWGWIRQPPGKGLEWIGSIYHSGSTYYNPSLKSRVTISVDTSKNQFSLKLSSVTAADTAVYYCARGRPELGWDKYFQHWGQGTLVTVSS VL: DIQMTQSPSSVSASVGDRVTITCRASQGISRWLAWYQQKPGKAPKLLIYAASSLQSGVPSRFSGSGSGTDFTLTISSLQPEDFATYYCQQANALPTFGGGTKVEIK | 21400 |
| anti-Sortilin antibody S-51 (antibody, V domains shown, IgG) VH: QVQLVESGGGVVQPGRSLRLSCAASGFTFSSYGMHWVRQAPGKGLEWVAVISYDGSNKYYADSVKGRFTISRDNSKNTLYLQMNSLRAEDTAVYYCAKGLEYYDSSRLYYPYYYYMDVWGKGTTVTVSS VL: EIVLTQSPATLSLSPGERATLSCRASQSVSSYLAWYQQKPGQAPRLLIYDASKRATGIPARFSGSGSGTDFTLTISSLEPEDFAVYYCQQRSNYPITFGGGTKVEIK | 21900 |
| anti-Sortilin antibody S-15 (antibody, V domains shown, IgG) VH: QVQLVQSGAEVKKPGASVKVSCKASGYTFTSYYMSWVRQAPGQGLEWMGIINPSGGSTSYAQKFQGRVTMTRDTSTSTVYMELSSLRSEDTAVYYCARDPSGIAAAGPASRYYYGMDVWGQGTTVTVSS VL: EIVMTQSPATLSVSPGERATLSCRASQSVSSNLAWYQQKPGQAPRLLIYGASTRATGIPARFSGSGSGTEFTLTISSLQSEDFAVYYCQQARLGPWTFGGGTKVEIK | 17600 |
